- protocol: The drug is tested on Ruminococcus torques strain: ATCC27756 for biotransformation. The drug concentrations were measured before and after a 12-h incubation by liquid-chromatography-coupled mass spectrometry (LC–MS)
- Type: ADME
- Set-up: dose 2 uM, timepoint 0 vs 12 hours
- conditions: 2 µM
quantityMeasured: Bacterial Biotransformation

Example results:
* O=C(O[C@H]1C[C@H]2CC[C@@H](C1)[N+]21CCCC1)C(O)(c1ccccc1)c1ccccc1.[Cl-] [TROSPIUM CHLORIDE] | Compound NOT metabolized
* CN[C@H]1CC[C@@H](c2ccc(Cl)c(Cl)c2)c2ccccc21 [SERTRALINE] | Compound NOT metabolized
* CN(C)CCC=C1c2ccccc2COc2ccccc21 [DOXEPIN] | Compound NOT metabolized
* Cc1cc2c(cc1S(N)(=O)=O)S(=O)(=O)CCC2 | Compound NOT metabolized
* Cc1cc2c(s1)Nc1ccccc1N=C2N1CCN(C)CC1 [OLANZAPINE] | Compound NOT metabolized
* CC(CCc1ccccc1)NCC(O)c1ccc(O)c(C(N)=O)c1 (configuration not stated) [LABETALOL] | Compound NOT metabolized
* CCCC1O[C@@H]2C[C@H]3[C@@H]4CCC5=CC(=O)C=C[C@]5(C)[C@H]4[C@@H](O)C[C@]3(C)[C@]2(C(=O)CO)O1 (some centres not stated) [BUDESONIDE] | Compound NOT metabolized
* C=CCc1ccccc1OCC(O)CNC(C)C (configuration not stated) [ALPRENOLOL] | Compound NOT metabolized

I am curious: what Bacterial Biotransformation value has been reported for CC(=O)OCC(=O)NCCCOc1cccc(CN2CCCCC2)c1 [ROXATIDINE ACETATE] ?
Compound metabolized

Proceed to O=C(O)CCC(=O)O.O=C(O[C@H]1CN2CCC1CC2)N1CCc2ccccc2[C@@H]1c1ccccc1 [SOLIFENACIN SUCCINATE]
Compound NOT metabolized

Proceed to CCCCCNC(=N)N/N=C/c1c[nH]c2ccc(OC)cc12.O=C(O)/C=C\C(=O)O [TEGASEROD MALEATE]
Compound NOT metabolized

Proceed to Nc1nc(NC2CC2)c2ncn([C@H]3C=C[C@@H](CO)C3)c2n1.Nc1nc(NC2CC2)c2ncn([C@H]3C=C[C@@H](CO)C3)c2n1.O=S(=O)(O)O [ABACAVIR SULFATE]
Compound NOT metabolized

Proceed to CC(C)(C)NC(=O)[C@H]1CC[C@H]2[C@@H]3CC[C@H]4NC(=O)C=C[C@]4(C)[C@H]3CC[C@]12C [FINASTERIDE]
Compound NOT metabolized

###

- protocol: The drug is tested on Bacteroides uniformis strain: ATCC8492 for biotransformation. The drug concentrations were measured before and after a 12-h incubation by liquid-chromatography-coupled mass spectrometry (LC–MS)
- conditions: 2 µM
quantityMeasured: Bacterial Biotransformation

* N#Cc1ccc2[nH]cc(CCCCN3CCN(c4ccc5oc(C(N)=O)cc5c4)CC3)c2c1 | Compound metabolized
* CC(=O)Oc1ccc(C(c2ccc(OC(C)=O)cc2)c2ccccn2)cc1 | Compound metabolized
* COc1ccc2c3c1O[C@H]1C[C@@H](O)C=C[C@@]31CCN(C)C2 | Compound metabolized
* CCN1CCCC1CNC(=O)c1cc(S(=O)(=O)CC)c(N)cc1OC (stereo not drawn) [AMISULPRIDE] | Compound NOT metabolized
* CC(=O)SCC(Cc1ccccc1)C(=O)NCC(=O)OCc1ccccc1 (stereo not drawn) | Compound metabolized
* CNCCC(Oc1ccc(C(F)(F)F)cc1)c1ccccc1 (stereo not drawn) | Compound metabolized
* COCCc1ccc(OCC(O)CNC(C)C)cc1.COCCc1ccc(OCC(O)CNC(C)C)cc1.O=C(O)C(O)C(O)C(=O)O (stereo not drawn) [METOPROLOL TARTRATE] | Compound NOT metabolized

I am curious: what Bacterial Biotransformation value has been reported for "COC1=CC(=O)C[C@@H](C)[C@]12Oc1c(Cl)c(OC)cc(OC)c1C2=O" ?
Compound metabolized
